experiment: AUC(0 to t) in Sprague-Dawley rat at 10 mg/kg, po; assay type: ADME, organism-based; details: in vivo
ASSAY METRIC: AUC(0-t) (ng·h/mL)
Just the number in ng·h/mL, nothing appended.

Record CN(C)CC(=O)N1CCC[C@@H](n2nc(-c3ccc(Oc4ccccc4)cc3)c3c(N)ncnc32)C1 , field AUC(0-t): 1830

---

assay: Cytotoxicity against mouse BAF3 cells assessed as cell proliferation after 72 hrs by CelltiterGlo assay; format: cell-based
Binned GI50 at 72 h; ranges: I (below 4 µM), II (4 µM to below 6 µM), III (6 µM or more)

Reference set (5 entries):
Which of the defined bands does the recorded GI50 at 72 h of NCC(=O)N1CC[C@@H](n2nc(-c3ccc(Oc4ccccc4)cc3)c3c(N)ncnc32)C1 sit within? III

Which of the defined bands does the recorded GI50 at 72 h of CCCS(=O)(=O)N1CCC[C@@H](n2nc(-c3ccc(Oc4ccccc4)cc3)c3c(N)ncnc32)C1 sit within? III

Which of the defined bands does the recorded GI50 at 72 h of CC(C)(C)C(=O)N1CCC[C@@H](n2nc(-c3ccc(Oc4ccccc4)cc3)c3c(N)ncnc32)C1 sit within? III

Which of the defined bands does the recorded GI50 at 72 h of Nc1ncnc2c1c(-c1ccc(Oc3ccccc3)cc1)nn2[C@@H]1CCCN(C(=O)CC2CC2)C1 sit within? I

Which of the defined bands does the recorded GI50 at 72 h of CN(C)CC(=O)N1CCC[C@@H](n2nc(-c3ccc(Oc4ccccc4)cc3)c3c(N)ncnc32)C1 sit within? II

***
Which of the defined bands does the recorded GI50 at 72 h of CC(=O)N1CCC[C@@H](n2nc(-c3ccc(Oc4ccccc4)cc3)c3c(N)ncnc32)C1 sit within? II

Which of the defined bands does the recorded GI50 at 72 h of CC(C)[C@@H](N)C(=O)N1CCC[C@@H](n2nc(-c3ccc(Oc4ccccc4)cc3)c3c(N)ncnc32)C1 sit within? I

Which of the defined bands does the recorded GI50 at 72 h of CS(=O)(=O)N1CCC(n2nc(-c3ccc(Oc4ccccc4)cc3)c3c(N)ncnc32)CC1 sit within? III

Which of the defined bands does the recorded GI50 at 72 h of CN1CCC(C(=O)N2CCC[C@@H](n3nc(-c4ccc(Oc5ccccc5)cc4)c4c(N)ncnc43)C2)CC1 sit within? II

Which of the defined bands does the recorded GI50 at 72 h of CN(C)CC(=O)N1CCC(n2nc(-c3ccc(Oc4ccccc4)cc3)c3c(N)ncnc32)CC1 sit within? I

Which of the defined bands does the recorded GI50 at 72 h of CN(C)CC(=O)N1CC[C@@H](n2nc(-c3ccc(Oc4ccccc4)cc3)c3c(N)ncnc32)C1 sit within? III

Which of the defined bands does the recorded GI50 at 72 h of C=CC(=O)N1CCC[C@@H](n2nc(-c3ccc(/C=C/c4ccccc4)cc3)c3c(N)ncnc32)C1 sit within? III

Which of the defined bands does the recorded GI50 at 72 h of CN1CCN(CC(=O)N2CCC[C@@H](n3nc(-c4ccc(Oc5ccccc5)cc4)c4c(N)ncnc43)C2)CC1 sit within? I

Which of the defined bands does the recorded GI50 at 72 h of CC[C@@H](C)[C@@H](N)C(=O)N1CCC[C@@H](n2nc(-c3ccc(Oc4ccccc4)cc3)c3c(N)ncnc32)C1 sit within? I

Which of the defined bands does the recorded GI50 at 72 h of Nc1ncnc2c1c(-c1ccc(Oc3ccccc3)cc1)nn2[C@@H]1CCCN(C(=O)[C@H](N)CO)C1 sit within? III
